Documented MIC across a set of compounds
- Tested on: Mycobacterium aurum DSM 43999 (ATCC 23366)
- ASSAY METHOD TEXT: Antimycobacterial screening (microdilution broth, resazurin) against M. aurum
- Format: cell-based
- REPORTED CONDITIONS: Mycolicibacterium aurum, 72 h, read-out: MIC M. aurum
Unit µg/mL implied. Number only.

Completed entries (count: 4):
{"MOL SMILES": "COc1ccc(C(=O)O[C@H]2C=C[C@@]34CCN(C)Cc5ccc(OC)c(c53)O[C@H]4C2)cc1OC", "TGT": "Mycobacterium aurum DSM 43999 (ATCC 23366)", "MEASUREMENT KIND": "MIC", "RECORDED MEASUREMENT": 125}
{"MOL SMILES": "COc1ccc2c3c1O[C@H]1C[C@@H](OC(=O)c4ccccc4)C=C[C@@]31CCN(C)C2", "TGT": "Mycobacterium aurum DSM 43999 (ATCC 23366)", "MEASUREMENT KIND": "MIC", "RECORDED MEASUREMENT": 31.2}
{"MOL SMILES": "COc1ccc(C(=O)O[C@H]2C=C[C@@]34CCN(C)Cc5ccc(OC)c(c53)O[C@H]4C2)cc1", "TGT": "Mycobacterium aurum DSM 43999 (ATCC 23366)", "MEASUREMENT KIND": "MIC", "RECORDED MEASUREMENT": 31.2}
{"MOL SMILES": "CCCCc1ccc(C(=O)O[C@H]2C=C[C@@]34CCN(C)Cc5ccc(OC)c(c53)O[C@H]4C2)cc1", "TGT": "Mycobacterium aurum DSM 43999 (ATCC 23366)", "MEASUREMENT KIND": "MIC", "RECORDED MEASUREMENT": 1.98}

stdin: Hello, please tell me recorded MIC for this one: `COc1ccc2c3c1O[C@H]1C[C@@H](OC(=O)c4cc(C)cc(C)c4)C=C[C@@]31CCN(C)C2`
stdout: 7.81

###

- Tested on: Mycobacterium tuberculosis H37Ra
- ASSAY METHOD TEXT: Antimycobacterial screening (microdilution broth, resazurin) against M. tuberculosis H37Ra
- Type: cell-based
- REPORTED CONDITIONS: Mycobacterium tuberculosis, H37RA, read-out: MIC Mtb H37Ra (µM)
MEASUREMENT KIND: log10(MIC) (log10 of the value in µM)
Could you please treat all values as log10 of MIC in µM?

stdin: State log10(MIC) (Mycobacterium tuberculosis H37Ra) of `COc1ccc2c3c1O[C@H]1C[C@@H](OC(=O)c4ccc(C)cc4)C=C[C@@]31CCN(C)C2` .
stdout: 1.55

stdin: State log10(MIC) (Mycobacterium tuberculosis H37Ra) of `COc1ccc2c3c1O[C@H]1C[C@@H](OC(=O)c4cccc(C)c4)C=C[C@@]31CCN(C)C2` .
stdout: 1.55

stdin: State log10(MIC) (Mycobacterium tuberculosis H37Ra) of `COc1cc2c(cc1OC)[C@@]13C=C[C@@H](OC(=O)c4cc(C)cc(C)c4)C[C@@H]1N(CC3)C2` .
stdout: 0.93

stdin: State log10(MIC) (Mycobacterium tuberculosis H37Ra) of `COc1cc(C(=O)O[C@H]2C=C[C@@]34CCN(C)Cc5ccc(OC)c(c53)O[C@H]4C2)cc(OC)c1OC` .
stdout: 2.08

stdin: State log10(MIC) (Mycobacterium tuberculosis H37Ra) of `COc1ccc(C(=O)O[C@H]2C=C[C@@]34CCN(C)Cc5ccc(OC)c(c53)O[C@H]4C2)cc1OC` .
stdout: 2.11

stdin: State log10(MIC) (Mycobacterium tuberculosis H37Ra) of `CCOc1cc(OCC)cc(C(=O)O[C@H]2C=C[C@@]34CCN(C)Cc5ccc(OC)c(c53)O[C@H]4C2)c1` .
stdout: 0.88

stdin: State log10(MIC) (Mycobacterium tuberculosis H37Ra) of `CCCCc1ccc(C(=O)O[C@H]2C=C[C@@]34CCN(C)Cc5ccc(OC)c(c53)O[C@H]4C2)cc1` .
stdout: 0.54

stdin: State log10(MIC) (Mycobacterium tuberculosis H37Ra) of `COc1ccc(C(=O)O[C@H]2C=C[C@@]34CCN(C)Cc5ccc(OC)c(c53)O[C@H]4C2)cc1` .
stdout: 1.83

stdin: State log10(MIC) (Mycobacterium tuberculosis H37Ra) of CCOc1cc(OCC)cc(C(=O)OC2C=C3C4CN(Cc5cc6c(cc54)OCO6)C3CC2OC)c1 (stereo not shown) .
stdout: 0.89

stdin: State log10(MIC) (Mycobacterium tuberculosis H37Ra) of `COc1ccc2c3c1O[C@H]1C[C@@H](OC(=O)c4cccc5ccccc45)C=C[C@@]31CCN(C)C2` .
stdout: 1.12

###

- Tested on: Mycobacterium aurum DSM 43999 (ATCC 23366)
- ASSAY METHOD TEXT: Antimycobacterial screening (microdilution broth, resazurin) against M. aurum
- Type: cell-based
- REPORTED CONDITIONS: Mycolicibacterium aurum, 72 h, read-out: MIC M. aurum
MEASUREMENT KIND: MIC (mg/L)
Unit mg/L implied. Number only.

{"COMPOUND": "COc1ccc2c3c1O[C@H]1C[C@@H](OC(=O)c4ccccc4C)C=C[C@@]31CCN(C)C2", "MIC [mg/L]": 31.2}
{"COMPOUND": "COc1ccc2c3c1O[C@H]1C[C@@H](OC(=O)c4ccc(C(C)(C)C)cc4)C=C[C@@]31CCN(C)C2", "MIC [mg/L]": 7.81}
{"COMPOUND": "COC1CC2C(=CC1OC(=O)c1cc(C)cc(C)c1)C1CN2Cc2cc3c(cc21)OCO3 (stereo not shown)", "MIC [mg/L]": 7.81}
{"COMPOUND": "COc1cccc(C(=O)O[C@H]2C=C[C@@]34CCN(C)Cc5ccc(OC)c(c53)O[C@H]4C2)c1", "MIC [mg/L]": 31.2}
{"COMPOUND": "O[C@@H]1C=C[C@]23CCN(Cc4cc5c(cc42)OCO5)[C@H]3C1", "MIC [mg/L]": 250}

stdin: State MIC (Mycobacterium aurum DSM 43999 (ATCC 23366)) of COC1CC2C(=CC1OC(=O)c1c(C)cc(C)cc1C)C1CN2Cc2cc3c(cc21)OCO3 (stereo not shown) .
stdout: 7.81

stdin: State MIC (Mycobacterium aurum DSM 43999 (ATCC 23366)) of COC1CC2C(=CC1OC(=O)c1ccc(C(C)(C)C)cc1)C1CN2Cc2cc3c(cc21)OCO3 (stereo not shown) .
stdout: 7.81

###

- Test system: Mycobacterium tuberculosis H37Ra
- ASSAY METHOD TEXT: Antimycobacterial screening (microdilution broth, resazurin) against M. tuberculosis H37Ra
- Format: cell-based
- REPORTED CONDITIONS: Mycobacterium tuberculosis; M. tuberculosis H37Ra; resazurin added after 120 h; read-out: MIC Mtb H37Ra
MEASUREMENT KIND: MIC

Completed entries (count: 5):
{"COMPOUND": "COC1CC2C(=CC1O)C1CN2Cc2cc3c(cc21)OCO3 (stereo not drawn)", "MIC": "≥ 500 µg/mL"}
{"COMPOUND": "COc1ccc2c3c1O[C@H]1C[C@@H](O)C=C[C@@]31CCN(C)C2 [galanthamine (1), galanthamine, reference compound]", "MIC": "≥ 500 µg/mL"}
{"COMPOUND": "COc1cc2c(cc1OC)[C@@]13C=C[C@@H](O)C[C@@H]1N(CC3)C2", "MIC": "≥ 500 µg/mL"}
{"COMPOUND": "COC1C=CC23c4cc5c(cc4CN(CC2O)C3C1)OCO5 (stereo not drawn)", "MIC": "≥ 500 µg/mL"}
{"COMPOUND": "CO[C@H]1C=C2[C@H]3C[N@@](Cc4cc5c(cc43)OCO5)[C@H]2C[C@@H]1O", "MIC": "≥ 500 µg/mL"}

stdin: Hello, please tell me recorded MIC for this one: `COc1cc2c(cc1OC)[C@@H](O)O[C@@H]1CC=C3CCN(C)[C@H]3[C@H]21`
stdout: ≥ 125 µg/mL

###

Documented MIC across a set of compounds
- Tested on: Mycobacterium tuberculosis H37Ra
- ASSAY METHOD TEXT: Antimycobacterial screening (microdilution broth, resazurin) against M. tuberculosis H37Ra
- Type: cell-based
- REPORTED CONDITIONS: Mycobacterium tuberculosis, H37RA, read-out: MIC Mtb H37Ra (µM)

{"COMPOUND": "COC1CC2C(=CC1O)C1CN2Cc2cc3c(cc21)OCO3 (stereo not drawn)", "MIC": "≥ 1660 µM"}
{"COMPOUND": "O[C@@H]1C=C[C@]23CCN(Cc4cc5c(cc42)OCO5)[C@H]3C1", "MIC": "≥ 1840 µM"}

Now for another entry.
stdin: Hello, please tell me recorded MIC for this one: `O[C@H]1[C@H]2c3cc4c(cc3CN3CCC(=C[C@@H]1O)[C@H]23)OCO4`
stdout: ≥ 1740 µM
